Data origin: patent US9028856B2

tested on: tropical house mosquito Culex quinquefasciatus (adults, 3 days old); experiment: Efficacy of formulations on surfaces (glazed/unglazed tiles, plywood), ten 3 day old mosquitoes, 3 min exposure; assay type: in vivo; settings: 24 h (mortality); in acetone on glazed tiles; Table 84
reportedProperty: % KD and Mortality (%)
Write the value in % as a bare number.

The value of % KD and Mortality measured for the compound O=C(CCCCCCCCC(=O)OCc1ccccc1)OCc1ccccc1 [1% Sebacic acid dibenzyl ester] turned out to be 7

Record summary for COC(=O)CCCCCCCCC(=O)OC [1% Dimethyl sebacate] : reported % KD and Mortality = 0

In plain terms, CN1C(C)(C)CC(O)CC1(C)C [1% 1,2,2,6,6-Pentamethyl-4-piperidinol] has a documented % KD and Mortality of 0

// % KD and Mortality lookup, compound = CNC(=O)Oc1cccc2c1OC(C)(C)O2 [0.1% bendiocarb] , result: 100

Record `O=C(CCCCCCCCC(=O)ON1C(=O)CCC1=O)ON1C(=O)CCC1=O` , field % KD and Mortality: 0

Kindly note the recorded % KD and Mortality for `CC1(C)CC(O)CC(C)(C)N1` , which is 3

The compound `CC1(C)CC(OC(=O)CCCCCCCCC(=O)OC2CC(C)(C)NC(C)(C)C2)CC(C)(C)N1` showed % KD and Mortality equal to 17

Reported % KD and Mortality for `CCCCCCCCON1C(C)(C)CC(OC(=O)CCCCCCCCC(=O)OC2CC(C)(C)N(OCCCCCCCC)C(C)(C)C2)CC1(C)C` was 7

The recorded % KD and Mortality for `CC1(C)CC(O)CC(C)(C)N1[O]` is 7

Sure, the documented % KD and Mortality for O=C(O)CCCCCCCCC(=O)O [1% Sebacic acid] is 13
